System: NCI-H522 lung
Assay: NCI tumour cell line growth inhibition, 48 h
Reported Endpoint: TGI (µM)
One number for each entry, in µM.

>  <Compound>
CCN1C(=O)N(CC)C2C1NN=c1s/c(=C\c3ccc(Cl)cc3Cl)c(=O)n12 (stereo not given)

>  <Test Value>
0.219

$$$$

Turning to the following compound.
// fetch NCI-H522 lung TGI for `CCC/C(Cl)=N\OC(=O)Nc1ccc(F)cc1` 4.12

====

Test system: CCRF-CEM leukemia
Assay: NCI tumour cell line growth inhibition, 48 h; in the data active = GI50 below about 0.43 µM; inactive = the rest
Choose one outcome from this list and give only that: active, inactive

Consider the worked cases shown below.
>  <Compound>
Cc1ccc2cnc(N)c(C#Cc3cc(C(=O)Nc4ccc(CN5CCN(C)CC5)c(C(F)(F)F)c4)cnc3C)c2c1

>  <Label Value>
inactive

$$$$
>  <Compound>
O=C(O)c1nc(NCc2nc3cc(Cl)ccc3o2)n[nH]1

>  <Label Value>
inactive

$$$$
>  <Compound>
CCSC1=NC2C(N(CC)C(=O)N2CC)N1/N=C/C=C/c1ccccc1[N+](=O)[O-] (stereo not given)

>  <Label Value>
active

$$$$

Status in this test for `N#CC(C#N)=C/C=C(\Cl)c1ccc(Cl)cc1` ? active

Status in this test for `CCCCN(CCCC)Cc1cc(Nc2ccnc3cc(Cl)ccc23)ccc1O` ? inactive
